// self-splicing fitness (ln) lookup, one value per entry
- EXPERIMENT SUMMARY: self-splicing fitness, log relative to wild type (ln ratio); higher = more splicing; Tetrahymena group I intron in knt gene, E. coli kanamycin selection, DiMSum; sequences stand for … in CUCUCU…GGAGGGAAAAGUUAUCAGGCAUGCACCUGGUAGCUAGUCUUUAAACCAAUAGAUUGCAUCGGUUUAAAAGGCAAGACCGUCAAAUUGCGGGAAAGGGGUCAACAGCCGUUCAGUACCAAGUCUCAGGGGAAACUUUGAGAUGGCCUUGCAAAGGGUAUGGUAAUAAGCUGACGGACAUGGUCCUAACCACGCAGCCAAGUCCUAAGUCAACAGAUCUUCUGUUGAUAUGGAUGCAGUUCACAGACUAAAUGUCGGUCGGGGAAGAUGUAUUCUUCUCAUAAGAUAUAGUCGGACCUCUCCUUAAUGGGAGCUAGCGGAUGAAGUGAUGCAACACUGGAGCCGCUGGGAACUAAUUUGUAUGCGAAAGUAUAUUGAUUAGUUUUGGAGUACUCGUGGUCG;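 also: selection with 25 µg/mL kanamycin versus none on LB agar overnight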
- PARTICULARS: 30 °C
MEASURED ENDPOINT: self-splicing fitness (ln)

> print(dat)
                     seq  assay.result
 1  ACCGAGCAAUAUUACGUAAC         -4.02
 2  CCCCAGCAAUAUUACGUACU         -3.21
 3  GUAUAGCAAUAUUACGGGCU         -2.86
 4  CGUGAGCAAUAUUACGGCCA         -2.35
 5  CCCUAGCAAUAUUACGACGC         -3.34
 6  GUCUAGCAAUAUUACGCACA         -0.72
 7  AAACAGCAAUAUUACGCAGU         -3.42
 8  ACAAAGCAAUAUUACGUCUU        -0.827
 9  AGAAAGCAAUAUUACGCAAA         -3.28
10  UUAGAGCAAUAUUACGCAGG          -2.7
11  AAAAAGCAAUAUUACGUGGA         -2.42
12  GAUAAGCAAUAUUACGAGUC         -3.11
13  UUGAAGCAAUAUUACGGGUU         -1.66
14  UAACAGCAAUAUUACGGUAC         -3.84
15  CAGAAGCAAUAUUACGGGGA         -4.87
16  CCUCAGCAAUAUUACGAGUC         -3.88
17  GUUGAGCAAUAUUACGACGG         -3.52
18  AGGGAGCAAUAUUACGUUAA         -3.09
19  CUUAAGCAAUAUUACGACGA         -3.58
20  UCACAGCAAUAUUACGAUAU         -2.96
21  AAUGAGCAAUAUUACGGCAA         -2.55
22  UACGAGCAAUAUUACGAAGA         -2.13
23  GGCUAGCAAUAUUACGGUGC         -1.49
24  UAGUAGCAAUAUUACGACGC         -3.61
25  AGCAAGCAAUAUUACGAAGG         -4.66
26  AGACAGCAAUAUUACGGGAU         -1.22
27  AAUAAGCAAUAUUACGGCUG          -0.2
28  GGUAAGCAAUAUUACGACCU         -1.81
29  GAAGAGCAAUAUUACGAGCC         -1.61
30  AAAGAGCAAUAUUACGAAUC         -3.27
31  GGCAAGCAAUAUUACGUUGA        -0.666
32  AGGCAGCAAUAUUACGUGGA         -4.02
33  AAUAAGCAAUAUUACGACAG         -1.64
34  UUACAGCAAUAUUACGACAA         -0.25
35  CAAUAGCAAUAUUACGCGGA         -3.59
36  AACGAGCAAUAUUACGGAAA         -3.63
37  GCCUAGCAAUAUUACGCGGA        -0.245
38  CGUCAGCAAUAUUACGAGAC         -2.95
39  CCGCAGCAAUAUUACGUCAU         -3.18
40  GAUUAGCAAUAUUACGUGGG         -3.52
41  ACGGAGCAAUAUUACGAGUU         -3.23
42  GUUGAGCAAUAUUACGGGGG         -3.87
43  GCCGAGCAAUAUUACGACUU         -1.04
44  CCCUAGCAAUAUUACGUAAC         -3.66
45  GCAAAGCAAUAUUACGCCUU         -2.55
46  GUGAAGCAAUAUUACGGACU       -0.0214
47  UUCGAGCAAUAUUACGAAGA            -2
48  UGAGAGCAAUAUUACGGGAG         -3.96
49  AUGCAGCAAUAUUACGCUAA        -0.813
50  ACCCAGCAAUAUUACGAUGA         -1.43
51  GGAUAGCAAUAUUACGGCCA        -0.925
52  GGGGAGCAAUAUUACGAGGU         -3.44
53  CCUAAGCAAUAUUACGCAGU         -3.23
54  GGUAAGCAAUAUUACGAAAC         -1.48
55  UAUAAGCAAUAUUACGAUGU         -2.49
56  GCACAGCAAUAUUACGAAAU         -1.63
57  CAAUAGCAAUAUUACGCACC         -3.66
58  GUAUAGCAAUAUUACGCUGG         -2.35
59  GCGCAGCAAUAUUACGGAUA         -1.98
60  UCACAGCAAUAUUACGUAGG         -1.07
61  UAACAGCAAUAUUACGAACG        -0.391
62  UAGUAGCAAUAUUACGUAAA         -3.01
63  CGUCAGCAAUAUUACGUCGG        -0.413
64  UGGGAGCAAUAUUACGAGCA         -1.28
65  UGGCAGCAAUAUUACGGGGU         -3.97
66  GCUAAGCAAUAUUACGUCAG         -3.84
67  CCUGAGCAAUAUUACGGAGC         -1.59
